# Experimental target: Delta-type opioid receptor (Homo sapiens)
# Protocol description: Binding inhibition of [3H]- -naltrindole (0.15 nM) to membranes in CHO cells expressing Opioid receptor delta 1
# Assay type: cell-based
pIC50: −log10 of the molar value.
Parameter threshold = 7. Response is 1 when pIC50 meets or exceeds it, else -1.

Example entries and their recorded answers appear below.
> print(dat)
                                   compound  assigned.category
1  C=CCN1CCN(C(c2ccccc2)c2ccc(C(=O)N(CCC)CC3CC3)cc2)CC1 (configuration not stated)                  1
2  C=CCN1C[C@H](C)N([C@H](c2ccccc2)c2ccc(C(=O)N(CC)CC)cc2)C[C@H]1C                  1

// query Say whether C=CCN1CCN(C(c2ccccc2)c2ccc(-c3ccccc3)cc2)CC1 (configuration not stated) shows pIC50 of 7 or more.
// result -1

// query Can C=CCN1CCN(C(c2ccccc2)c2ccc(C(=O)N(C)C)cc2)CC1 (configuration not stated) be said to have pIC50 at or above 7?
// result 1

// query Decide: is the reported value of pIC50 for C=CCN1CCN(C(c2ccccc2)c2ccc(C(=O)OCC)cc2)CC1 (configuration not stated) equal to or greater than 7?
// result -1

----------
Please go through the items and note down their pIC50.
# Experimental target: Kappa-type opioid receptor (Cavia porcellus, UniProt P41144)
# Sequence (P41144 whole entry): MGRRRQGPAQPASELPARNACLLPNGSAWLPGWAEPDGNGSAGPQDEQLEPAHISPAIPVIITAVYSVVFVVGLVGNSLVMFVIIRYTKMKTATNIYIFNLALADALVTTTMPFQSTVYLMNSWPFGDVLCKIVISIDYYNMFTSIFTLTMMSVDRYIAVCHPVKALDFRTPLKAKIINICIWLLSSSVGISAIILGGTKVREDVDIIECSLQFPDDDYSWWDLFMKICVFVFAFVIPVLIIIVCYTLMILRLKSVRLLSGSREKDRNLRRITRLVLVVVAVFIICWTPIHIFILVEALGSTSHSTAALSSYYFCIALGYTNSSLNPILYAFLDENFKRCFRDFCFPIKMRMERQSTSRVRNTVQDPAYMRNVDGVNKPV
# Protocol description: Binding affinity towards Opioid receptor kappa 1 using [3H]- U-69,593 (1.5 nM) as radioligand in guinea pig brain membranes
# Type: cell membranes, Membrane
Give bare numbers, as −log10 of the molar value.

Please give pIC50 for each item listed below.
1. C=CCN1C[C@H](C)N([C@@H](c2ccc(-c3ccccn3)cc2)c2cccc(OC)c2)C[C@H]1C
2. C=CCN1C[C@H](C)N([C@@H](c2ccc(C(=S)N(CC)CC)cc2)c2cccc(OC)c2)C[C@H]1C

// result
5.68
5.07

----------
# Experimental target: Mu-type opioid receptor (Rattus norvegicus, UniProt P33535)
# Sequence (P33535 whole entry): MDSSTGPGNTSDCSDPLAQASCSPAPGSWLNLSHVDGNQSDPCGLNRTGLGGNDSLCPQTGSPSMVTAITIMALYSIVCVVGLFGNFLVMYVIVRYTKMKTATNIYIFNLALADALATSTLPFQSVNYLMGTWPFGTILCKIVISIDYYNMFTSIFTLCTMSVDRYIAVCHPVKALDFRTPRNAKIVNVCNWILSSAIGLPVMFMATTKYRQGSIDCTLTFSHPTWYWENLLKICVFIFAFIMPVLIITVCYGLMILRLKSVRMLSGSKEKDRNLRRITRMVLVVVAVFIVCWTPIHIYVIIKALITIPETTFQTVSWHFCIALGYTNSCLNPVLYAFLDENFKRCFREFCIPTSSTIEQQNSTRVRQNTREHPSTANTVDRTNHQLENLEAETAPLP
# Protocol description: Binding affinity towards mu opioid receptor using [3H]- -DAMGO (1.5 nM) as radioligand in rat brain membranes
Outcome measure: IC50 (µM)
Give bare numbers, in µM.

Return reported IC50 values for all items listed beneath this line.
1. C=CCN1C[C@H](C)N(C(c2ccccc2)c2ccccc2)C[C@H]1C
2. C=CCN1C[C@H](C)N([C@@H](c2ccc(-c3ccccn3)cc2)c2cccc(OC)c2)C[C@H]1C

// result
1. 0.38
2. 6.4

----------
For each of the molecules below, state its pIC50.
# Experimental target: Mu-type opioid receptor (Rattus norvegicus, UniProt P33535)
# Protocol description: Binding affinity towards mu opioid receptor using [3H]- -DAMGO (1.5 nM) as radioligand in rat brain membranes
Answers are plain numbers, as −log10 of the molar value.

> print(dat)
                                   molecule  outcome.measure  numeric.result
1  C=CCN1C[C@H](C)N([C@@H](c2ccc(C(=O)OC)cc2)c2cccc(OC)c2)C[C@H]1C            pIC50            5.44
2  C=CCN1C[C@H](C)N([C@H](c2ccccc2)c2ccc(C(=O)N(CC)CC)cc2)C[C@H]1C            pIC50            5.19
3  C=CCN1CCN(C(c2ccccc2)c2ccc(C(=O)N(CCC)CCC)cc2)CC1 (centres undefined)            pIC50            4.38

Shift focus to the following entry.
// query Reported pIC50, molecule C=CCN1C[C@H](C)N([C@@H](c2ccc(C(=S)N(CC)CC)cc2)c2cccc(OC)c2)C[C@H]1C : ____
// result 5.20

----------
# Experimental target: Delta-type opioid receptor (Homo sapiens)
# Protocol description: Compound was tested for inhibition of binding of [3H]- -naltrindole (0.15 nM) to membranes from CHO cells expressing human delta opioid receptor
# Type: cell membranes
Outcome measure: IC50 (nM)
Answers are plain numbers, in nM.

// query Form field: IC50 recorded for C=CCN1CCN(C(c2ccccc2)c2ccc(C(=O)N(CC)CC)cc2)CC1 (stereo unspecified) with Delta-type opioid receptor (Homo sapiens) (enter value)
// result 5

----------
# Experimental target: Delta-type opioid receptor (Homo sapiens, UniProt P41143)
# Sequence (P41143 whole entry): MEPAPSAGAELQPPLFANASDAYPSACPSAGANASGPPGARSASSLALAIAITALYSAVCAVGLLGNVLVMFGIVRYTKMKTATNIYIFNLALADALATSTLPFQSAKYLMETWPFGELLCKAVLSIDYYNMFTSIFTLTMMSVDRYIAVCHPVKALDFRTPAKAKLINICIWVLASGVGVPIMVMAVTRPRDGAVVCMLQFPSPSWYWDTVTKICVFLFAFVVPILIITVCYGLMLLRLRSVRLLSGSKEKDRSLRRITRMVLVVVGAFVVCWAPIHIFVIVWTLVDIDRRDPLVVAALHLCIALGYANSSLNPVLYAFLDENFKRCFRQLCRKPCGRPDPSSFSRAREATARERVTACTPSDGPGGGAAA
# Protocol description: Binding inhibition of [3H]- -naltrindole (0.15 nM) to membranes in CHO cells expressing Opioid receptor delta 1
# Format: cell-based
Assignment: determine reported log10 of IC50 for the given compounds.
Hello, just confirming the data are log10 of IC50 with units of nM.

Here's what some known entries look like.
> print(dat)
                                   compound  outcome.measure  numeric.result
1  C=CCN1CCN(C(c2ccccc2)c2ccc(C(=O)N3CCCCC3)cc2)CC1 (configuration not stated)    log10 of IC50            1.92
2  C=CCN1CCN([C@H](c2ccc(C(=O)N(CC)CC)cc2)c2cccc(OC)c2)CC1    log10 of IC50            0.87

Please give log10 of IC50 for each item listed below.
1. C=CCN1C[C@H](C)N([C@@H](c2ccc(C(=O)O)cc2)c2cccc(OC)c2)C[C@H]1C
2. C=CCN1C[C@H](C)N([C@@H](c2ccc(C(=S)N(CC)CC)cc2)c2cccc(OC)c2)C[C@H]1C
3. C=CCN1CCN(C(c2ccccc2)c2ccc(C(=O)Nc3ccc(OC)cc3)cc2)CC1 (configuration not stated)
4. C=CCN1C[C@H](C)N([C@@H](c2ccc(-c3ccccn3)cc2)c2cccc(OC)c2)C[C@H]1C
5. C=CCN1CCN(C(c2ccccc2)c2ccc(C(=O)N(CCC)CCC)cc2)CC1 (configuration not stated)
6. C=CCN1CCN(C(c2ccccc2)c2ccc(C(=O)OC)cc2)CC1 (configuration not stated)
7. C=CCN1CCN([C@@H](c2ccccc2)c2ccc(C(=O)N(CC)CC)cc2)CC1
8. C=CCN1CCN(C(c2ccccc2)c2ccc(-c3cccs3)cc2)CC1 (configuration not stated)

// result
1: 2.65; 2: 0.72; 3: 3.28; 4: 1.34; 5: 0.86; 6: 2.78; 7: 0.61; 8: 3.41

Return reported log10 of IC50 values for all items listed beneath this line.
1. C=CCN1C[C@H](C)N(C(c2ccccc2)c2ccccc2)C[C@H]1C
2. C=CCN1CCN(C(c2ccccc2)c2ccc(C(=O)O)cc2)CC1 (configuration not stated)
3. C=CCN1C[C@H](C)N([C@@H](c2ccc(C(=O)OC)cc2)c2cccc(OC)c2)C[C@H]1C
4. C=CCN1CCN(C(c2ccccc2)c2ccc(C(=O)N(Cc3cccnc3)CC(OCCC)OCCC)cc2)CC1 (configuration not stated)

// result
[2.62, 3.91, 2.38, 0.60]

----------
Could you please report measured IC50 for the items listed next?
# Experimental target: Kappa-type opioid receptor (Cavia porcellus, UniProt P41144)
# Protocol description: Binding affinity towards Opioid receptor kappa 1 using [3H]- U-69,593 (1.5 nM) as radioligand in guinea pig brain membranes

> print(dat)
                              line.notation  outcome.measure   result
1  C=CCN1CCN([C@@H](c2ccccc2)c2ccc(C(=O)N(CC)CC)cc2)CC1             IC50  > 10 µM
2  C=CCN1C[C@H](C)N([C@H](c2ccccc2)c2ccc(C(=O)N(CC)CC)cc2)C[C@H]1C             IC50  > 10 µM

// switching to the query molecule
// query Quick one: IC50 for C=CCN1CCN([C@H](c2ccc(C(=O)N(CC)CC)cc2)c2cccc(OC)c2)CC1 ?
// result > 10 µM

----------
# Experimental target: Mu-type opioid receptor (Rattus norvegicus, UniProt P33535)
# Protocol description: Binding affinity towards mu opioid receptor using [3H]- -DAMGO (1.5 nM) as radioligand in rat brain membranes
pIC50: −log10 of the molar value.
Outcome measure: pIC50

Recorded pIC50, per entry:
> print(dat)
                                   compound  outcome.measure  result
1  C=CCN1C[C@H](C)N([C@@H](c2ccc(C(=O)O)cc2)c2cccc(OC)c2)C[C@H]1C            pIC50  < 5.00
2  C=CCN1CCN(C(c2ccccc2)c2ccc(C(=O)N(Cc3cccnc3)CC(OCCC)OCCC)cc2)CC1 (stereo not drawn)            pIC50  < 5.00

// query Return reported pIC50; argument: C=CCN1CCN(C(c2ccccc2)c2ccc(C(=O)N(CCC)CC3CC3)cc2)CC1 (stereo not drawn)
// result < 5.00

----------
Please respond with reported IC50 for every item in the list.
# Experimental target: Mu-type opioid receptor (Rattus norvegicus, UniProt P33535)
# Protocol description: Binding affinity towards mu opioid receptor using [3H]- -DAMGO (1.5 nM) as radioligand in rat brain membranes

Below, each entry is followed by its recorded IC50 result.
> print(dat)
                                   compound  outcome.measure     result
1  C=CCN1CCN(C(c2ccccc2)c2ccc(C(=O)N3CCCCC3)cc2)CC1 (stereo not given)             IC50  > 21.6 µM
2  C=CCN1CCN(C(c2ccccc2)c2ccc(C(=O)N(C)C)cc2)CC1 (stereo not given)             IC50    > 50 µM

Quick one: give me IC50 for each item below, same order please.
1. C=CCN1CCN(C(c2ccccc2)c2ccc(C(=O)N(CC)CC)cc2)CC1 (stereo not given)
2. C=CCN1CCN([C@@H](c2ccccc2)c2ccc(C(=O)N(CC)CC)cc2)CC1

// result
1: > 10 µM; 2: > 10 µM

// query What value of IC50 has been reported for the following compound? C=CCN1CCN([C@H](c2ccc(C(=O)N(CC)CC)cc2)c2cccc(OC)c2)CC1
// result > 10 µM
